Tested on: Human immunodeficiency virus 1
method: Antiviral activity against pseudo HIV1 infected in human 293T cells after 2 days by luciferase reporter gene assay
Format: functional, organism-based
condition summary: Human immunodeficiency virus 1, HEK-293T, 48 h
Provide the reported EC50 of each item.
Enter your answer as a number in nM; do not include the unit.

Need EC50 of Cn1c(=O)c(C(=O)NCc2ccc(F)cc2)c(O)c2ncc(Cc3ccc(F)cc3)cc21 , thanks.
8

Then what about the molecule CC(C)n1c(=O)c(C(=O)NCc2ccc(F)cc2)c(O)c2ncccc21 ?
400

Then what about the molecule O=C(NCc1ccc(F)cc1)c1c(O)c2ncc(Cc3ccccc3)cc2n(CCN2CCCC2=O)c1=O ?
8

Then what about the molecule CS(=O)(=O)c1ccc(Cn2c(=O)c(C(=O)NCc3ccc(F)cc3)c(O)c3ncc(Cc4ccccc4)cc32)cc1 ?
9

Then what about the molecule CC(NC(=O)c1c(O)c2ncc(Cc3ccccc3)cc2[nH]c1=O)c1ccccc1 (stereo not given) ?
65
